- assay_target: TDP-43 (Homo sapiens, UniProt Q13148 1-414)
- Sequence (Q13148 whole entry): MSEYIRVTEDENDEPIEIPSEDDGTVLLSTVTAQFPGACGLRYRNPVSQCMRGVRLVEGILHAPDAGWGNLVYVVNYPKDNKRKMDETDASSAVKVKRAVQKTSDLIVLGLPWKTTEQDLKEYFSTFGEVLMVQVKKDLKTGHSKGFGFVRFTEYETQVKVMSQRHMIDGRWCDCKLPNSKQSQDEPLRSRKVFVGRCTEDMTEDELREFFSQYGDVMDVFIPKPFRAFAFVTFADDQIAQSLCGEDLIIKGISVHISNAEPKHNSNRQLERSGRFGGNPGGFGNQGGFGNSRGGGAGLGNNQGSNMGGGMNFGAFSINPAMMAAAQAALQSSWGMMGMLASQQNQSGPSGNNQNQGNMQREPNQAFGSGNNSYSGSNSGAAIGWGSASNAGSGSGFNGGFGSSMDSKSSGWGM
- assay_explanation: RNA Bind-n-Seq with designed 260-mer pool; 25 mM Tris-HCl, 150 mM KCl, 3 mM MgCl2, BSA (printed 500 mg/mL), 20 units/mL SUPERase IN; pH not stated; 500 nM RNA pool, 1 h, 4 C; TDP-43 5, 50, 500 nM; high values mean tight binding
- experimental_context: protein: recombinant; tags: SBP (GST cleaved off with PreScission; pGEX-GST-SBP)
The full ranking holds about 9,900 sequences; the median of “r (bound/input frequency ratio)” is about 0.7, and the highest 2% start at about 6.5. The sample holds the highest values, similar sequences and a random draw of the others, so the mix is not that of the screen.
measured_property: binding signal

[[record]]
binder = "ENSMUSG00000029028.15|Lrrc47 (ssRNA) RNA: GGGAGUUCUACAGUCCGACGAUCGCUUCGAUAUCCGCAUGCUAGACUGUGGUCCGCUGACAGGCUCCUGUAGGUGUGGGUGUGCUGUAGGUGUCUGUGUGGGUGUGGGUGUGCUGUAGGUGUCUGUGUGGGUGUGGGUGUGCUAUAGGUAUCUGUGGGUGUGCUGUAGGUGUCUGUGUGGGUGUGCUGUAGGUGUCUGUGUAGGUGUGGGUGUGCUGUAGGUGUCUGUGUGGGUGUGCUAGGUGUCUGUAUAGGUGUGGGUGUGCUGUAGAUGUCUGUGUAGGUAUGGGUGUGCUGUAGAUCUCUCUUGCGGUCGCACUAGUGUGGAAUUCUCGGGUGUCAAGG"
result = "6.93 R (bound/input frequency ratio)"

[[record]]
binder = "ENSMUSG00000090935.767|Synj2bp (ssRNA) RNA: GGGAGUUCUACAGUCCGACGAUCGCUUCGAUAUCCGCAUGCUAAUUUUAAAAAUCAGUUUACUUUCAUCUUUUCUCUUUAGGCUUUCAAUAAAGACCAGAAGGACUGAUAGACAGCUAGAGAGGAUCGUGUAGGCAUCCAGAUUAGAAUGGAAGAAUCCAUUGAACAAUCUGAGAAAACUAAUCAGGUGUUGUUUUAAUCACAUUAGUUUUAAGUUAGAUACAUGCUCUUUGUAGUAUUUUGGGUUUUAUUGUGCAAAUAAGCAAUUAAAAUAUAUUUAGAAGCCAAGUAUAAUGGUACAUGUCUCUUGCGGUCGCACUAGUGUGGAAUUCUCGGGUGUCAAGG"
result = "0.0267 R (bound/input frequency ratio)"

[[record]]
binder = "ENSMUSG00000029028.22|Lrrc47 (ssRNA) RNA: GGGAGUUCUACAGUCCGACGAUCGCUUCGAUAUCCGCAUGCUAGUAGGUGUCUGUGUGGGUGUGGGUGUGCUGUAGGUGUCUGUGUGGGUGUGGGUGUGCUAUAGGUAUCUGUGGGUGUGCUGUAGGUGUCUGUGUGGGUGUGCUGUAGGUGUCUGUGUAGGUGUGGGUGUGCUGUAGGUGUCUGUGUGGGUGUGCUAGGUGUCUGUAUAGGUGUGGGUGUGCUGUAGAUGUCUGUGUAGGUAUGGGUGUGCUGUAGAUCUUUGUAGGUGUAGGUAUGCUGUAGGUAUCUGGGUGUGGGUAUGCUCUUGCGGUCGCACUAGUGUGGAAUUCUCGGGUGUCAAGG"
result = "5.37 R (bound/input frequency ratio)"

[[record]]
binder = "ENSMUSG00000029028.14|Lrrc47 (ssRNA) RNA: GGGAGUUCUACAGUCCGACGAUCGCUUCGAUAUCCGCAUGCUACCACGUGACUGUGGUCCGCUGACAGGCUCCUGUAGGUGUGGGUGUGCUGUAGGUGUCUGUGUGGGUGUGGGUGUGCUGUAGGUGUCUGUGUGGGUGUGGGUGUGCUAUAGGUAUCUGUGGGUGUGCUGUAGGUGUCUGUGUGGGUGUGCUGUAGGUGUCUGUGUAGGUGUGGGUGUGCUGUAGGUGUCUGUGUGGGUGUGCUAGGUGUCUGUAUAGGUGUGGGUGUGCUGUAGAUGUCUGUGUAGGUAUGGGUGUGCUGUCUCUUGCGGUCGCACUAGUGUGGAAUUCUCGGGUGUCAAGG"
result = "6.07 R (bound/input frequency ratio)"

